Measured relative viability accompanies every entry in the list below.
Tested on: NCI-H596
Experiment: relative viability (nuclei count vs DMSO), 5 days (fraction); higher = more cells survive
Conditions: first compound 0.04 µM
quantity-measured: relative viability

{"columns": ["compound", "quantity-measured", "endpoint-value"],
 "data": [
  ["O=C(O)c1ccc(-c2c[nH]c3ncc(-c4ccccc4)cc23)cc1C1CCCC1 + C[C@@H](Oc1cc(-c2cnn(C3CCNCC3)c2)cnc1N)c1c(Cl)ccc(F)c1Cl [Crizotinib] (partner 1 µM)", "relative viability", 1],
  ["O=C(O)c1ccc(-c2c[nH]c3ncc(-c4ccccc4)cc23)cc1C1CCCC1 + Cc1nc(NC(=O)N2CCC[C@H]2C(N)=O)sc1-c1ccnc(C(C)(C)C(F)(F)F)c1 [Alpelisib] (partner 2 µM)", "relative viability", 0.492],
  ["O=C(O)c1ccc(-c2c[nH]c3ncc(-c4ccccc4)cc23)cc1C1CCCC1 + Nc1nc2[nH]cc(CCc3ccc(C(=O)N[C@@H](CCC(=O)O)C(=O)O)cc3)c2c(=O)[nH]1 [Pemetrexed] (partner 0.2 µM)", "relative viability", 0.472],
  ["O=C(O)c1ccc(-c2c[nH]c3ncc(-c4ccccc4)cc23)cc1C1CCCC1 + COc1cc2c(Oc3ccc(NC(=O)C4(C(=O)Nc5ccc(F)cc5)CC4)cc3F)ccnc2cc1OCCCN1CCOCC1 [Foretinib] (partner 0.25 µM)", "relative viability", 0.783],
  ["O=C(O)c1ccc(-c2c[nH]c3ncc(-c4ccccc4)cc23)cc1C1CCCC1 + CC(=O)Nc1cccc(-n2c(=O)n(C3CC3)c(=O)c3c(Nc4ccc(I)cc4F)n(C)c(=O)c(C)c32)c1 [Trametinib] (partner 0.02 µM)", "relative viability", 0.726],
  ["O=C(O)c1ccc(-c2c[nH]c3ncc(-c4ccccc4)cc23)cc1C1CCCC1 + O=C(CCCCCCC(=O)Nc1ccccc1)NO [Vorinostat] (partner 1 µM)", "relative viability", 0.499]
]}

Source listed as the supplement of paper PMC10307832.
